These entries and their values trace back to patent US20240116951A1.

Below, each entry is listed with its recorded IC50.
# system-under-test: KRAS G12S (Homo sapiens, UniProt P01116, G12S)
# Construct: made in house; host or cells: E. coli, e.g. BL21 (DE3)
# Sequence (P01116 1-188 isoform P01116-2 G12S): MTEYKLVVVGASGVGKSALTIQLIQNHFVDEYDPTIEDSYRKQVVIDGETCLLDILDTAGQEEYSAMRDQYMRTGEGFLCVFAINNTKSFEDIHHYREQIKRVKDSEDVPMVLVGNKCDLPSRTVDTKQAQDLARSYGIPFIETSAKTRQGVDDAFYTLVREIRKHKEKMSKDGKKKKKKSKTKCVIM
# assay-info: HTRF assay of K-Ras G12S interaction with SOS1 (PPI-HTRF)
# Type: binding
# condition-description: 5 nM KRAS G12S, read-out: PPI-HTRF-5 nM KRAS G12S

Known results for compounds:
# compound, IC50
records = [
    ("Nc1nc2c(-c3c(Cl)cc4c(N5CC6(CNCCN6)C5)nc(OC[C@@]56CCCN5C[C@H](F)C6)nc4c3F)ccc(F)c2s1 [Compound 205]", "< 5 µM"),
    ("Cc1cn(C(=O)N2CCC23CCN(c2nc(OC[C@@]45CCCN4C[C@H](F)C5)nc4c(F)c(-c5ccc(F)c6sc(N)c(C#N)c56)c(Cl)cc24)C3)nn1 (stereo partly drawn)", "< 5 µM"),
]

Please find the next compound below.
## Task What value of IC50 on KRAS G12S (Homo sapiens, UniProt P01116, G12S) does N#Cc1c(N)sc2c(F)ccc(-c3c(Cl)cc4c(N5CC6(CCN6C(=O)n6cncn6)CC5COC(F)F)nc(OC[C@@]56CCCN5C[C@H](F)C6)nc4c3F)c12 (stereo partly drawn) [Compound 348] have?
## Result < 5 µM

###

# system-under-test: KRAS WT (Homo sapiens, UniProt P01116)
# Construct: made in house; host or cells: E. coli, e.g. BL21 (DE3)
# Sequence (P01116 1-188 isoform P01116-2): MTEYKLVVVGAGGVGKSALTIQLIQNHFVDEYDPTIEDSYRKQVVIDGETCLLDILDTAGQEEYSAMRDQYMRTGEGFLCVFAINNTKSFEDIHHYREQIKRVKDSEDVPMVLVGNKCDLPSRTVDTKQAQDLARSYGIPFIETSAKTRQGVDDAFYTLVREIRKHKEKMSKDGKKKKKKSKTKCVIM
# assay-info: HTRF assay of wildtype K-Ras interaction with SOS1 (PPI-HTRF)
# Format: binding
# condition-description: HTRF, 5 nM KRAS WT; read-out: PPI-HTRF-5 nM KRAS WT
pIC50: −log10 of the molar value.
quantity-measured: pIC50

Known results for molecules:
# molecule, pIC50
rows = [
    ("C[C@H](Oc1nc(N2CC[C@@]3(CCN3C(=O)C3CC3(F)F)C2)c2cc(Cl)c(-c3ccc(F)c4sc(N)c(C#N)c34)c(F)c2n1)[C@@H]1CCCN1C (stereo partly drawn) [Compound 346]", "> 5.30"),
    ("N#Cc1c(N)sc2c(F)ccc(-c3c(Cl)cc4c(N5CC[C@]6(CCN6)C5)nc(OC[C@@]56CCCN5C[C@H](F)C6)nc4c3F)c12 [Compound 285]", "> 5.30"),
]

Please find the next molecule below.
## Task What value of pIC50 on KRAS WT (Homo sapiens, UniProt P01116) does CCc1ncn(C(=O)N2CCC23CCN(c2nc(OC[C@@]45CCCN4C[C@H](F)C5)nc4c(F)c(-c5ccc(F)c6sc(N)c(C#N)c56)c(Cl)cc24)C3)n1 (stereo partly drawn) [Compound 314] have?
## Result > 5.30

###

Below, each entry is listed with its recorded pIC50.
# system-under-test: KRAS G12D (Homo sapiens, UniProt P01116, G12D)
# Construct: made in house; host or cells: E. coli, e.g. BL21 (DE3)
# Sequence (P01116 1-188 isoform P01116-2 G12D): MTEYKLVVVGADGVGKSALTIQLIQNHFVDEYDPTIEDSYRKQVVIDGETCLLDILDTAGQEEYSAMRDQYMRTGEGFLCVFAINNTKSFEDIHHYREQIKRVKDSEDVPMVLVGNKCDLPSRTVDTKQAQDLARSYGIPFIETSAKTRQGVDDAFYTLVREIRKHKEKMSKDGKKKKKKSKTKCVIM
# assay-info: HTRF assay of K-Ras G12D interaction with SOS1 (PPI-HTRF)
# Type: binding
# condition-description: HTRF, 5 nM KRAS G12D; read-out: PPI-HTRF-5 nM KRAS G12D
# Excerpt: This assay can be also used to assess a selective inhibition or reduction of signaling output of a mutant Ras protein relative to a wildtype, or relative to a different mutant Ras protein. For example, the equilibrium interaction of wildtype Kras or K-Ras mutant (e.g., wildtype or a mutant thereof including those mentioned in Example 4) with SOS1 (e.g., hSOS1) can be assessed as a proxy or an indication for a subject compound's ability to bind and inhibit Ras protein. […]
pIC50: −log10 of the molar value.

## Task Which value of pIC50 has been reported for CN1CCC[C@H]1COc1nc(N2CCC3(CCN3C(=O)n3cncn3)C2)c2cc(Cl)c(-c3ccc(F)c4sc(N)c(C#N)c34)c(F)c2n1 (stereo partly drawn) in the records?
## Result > 5.30

## Task Next up: N#Cc1c(N)sc2c(F)ccc(-c3c(Cl)cc4c(N5CCC6(CCN6C(=O)n6cccc6C#N)C5)nc(OC[C@@]56CCCN5C[C@H](F)C6)nc4c3F)c12 (stereo partly drawn)
## Result > 5.30

## Task Next up: N#CCC1CN(c2nc(OC[C@@]34CCCN3C[C@H](F)C4)nc3c(F)c(-c4ccc(F)c5sc(N)c(C#N)c45)c(Cl)cc23)CC12CCN2C(=O)n1cnc(Cl)n1 (stereo partly drawn)
## Result > 5.30

###

Below, each entry is listed with its recorded IC50.
# system-under-test: KRAS G12D (Homo sapiens, UniProt P01116, G12D)
# Construct: made in house; host or cells: E. coli, e.g. BL21 (DE3)
# assay-info: HTRF assay of K-Ras G12D interaction with SOS1 (PPI-HTRF)
# Format: binding
# condition-description: HTRF, 5 nM KRAS G12D; read-out: PPI-HTRF-5 nM KRAS G12D

# molecule, value-reported
data = [
    ("N#Cc1c(N)sc2c(F)ccc(-c3c(Cl)cc4c(N5CC[C@@]6(CCN6C(=O)n6cnc(CCl)n6)C5)nc(OC[C@@]56CCCN5C[C@H](F)C6)nc4c3F)c12 [Compound 322]", "< 5 µM"),
]

## Task Which value of IC50 has been reported for C[C@H](Oc1nc(N2CCC3(CCN3C(=O)[C@@H]3C[C@H]3F)C2)c2cc(Cl)c(-c3ccc(F)c4sc(N)c(C#N)c34)c(F)c2n1)[C@@H]1CCCN1C (some centres unmarked) [Compound 271] in the records?
## Result < 5 µM

## Task Next up: Cc1cc(N)c(F)c(-c2c(Cl)cc3c(N4CCC5(CCN5C(=O)n5cncn5)C4)nc(OC[C@@]45CCCN4C[C@H](F)C5)nc3c2F)c1C(F)(F)F (some centres unmarked) [Compound 279]
## Result > 5 µM

## Task Next up: N#Cc1c(N)sc2c(F)ccc(-c3c(Cl)cc4c(N5CCC6(CCN6C(=O)n6cnc(C7CC7)n6)C5)nc(OC[C@@]56CCCN5C[C@H](F)C6)nc4c3F)c12 (some centres unmarked) [Compound 308]
## Result < 5 µM

## Task Next up: Cc1ncn(C(=O)N2CCOCC23CCN(c2nc(OC[C@@]45CCCN4C[C@H](F)C5)nc4c(F)c(-c5ccc(F)c6sc(N)c(C#N)c56)c(Cl)cc24)C3)n1 (some centres unmarked) [Compound 214]
## Result < 5 µM

###

# system-under-test: KRAS G12D (Homo sapiens, UniProt P01116, G12D)
# Construct: made in house; host or cells: E. coli, e.g. BL21 (DE3)
# assay-info: HTRF assay of K-Ras G12D interaction with SOS1 (PPI-HTRF)
# Type: binding
# condition-description: HTRF, 5 nM KRAS G12D; read-out: PPI-HTRF-5 nM KRAS G12D
quantity-measured: IC50

Known results for compounds:
# compound, IC50
rows = [
    ("C#Cc1c(F)ccc2cc(O)cc(-c3ncc4c(N5CCC6(CCN6)C5)nc(O[C@@H](C)[C@@H]5CCCN5C)nc4c3F)c12 (some centres unmarked) [Compound 239]", "> 5 µM"),
    ("C[C@H]1CN(C(=O)n2cncn2)[C@]12CCN(c1nc(OC[C@@]34CCCN3C[C@H](F)C4)nc3c(F)c(-c4ccc(F)c5sc(N)c(C#N)c45)c(Cl)cc13)C2 [Compound 324]", "< 5 µM"),
    ("N#Cc1c(N)sc2c(F)ccc(-c3c(Cl)cc4c(N5CCC6(CCN6C(=O)n6ccnn6)C5)nc(OC[C@@]56CCCN5C[C@H](F)C6)nc4c3F)c12 (some centres unmarked) [Compound 248]", "< 5 µM"),
    ("Cc1nc(C(C)C)nn1C(=O)N1CCC12CCN(c1nc(OC[C@@]34CCCN3C[C@H](F)C4)nc3c(F)c(-c4ccc(F)c5sc(N)c(C#N)c45)c(Cl)cc13)C2 (some centres unmarked) [Compound 266]", "< 5 µM"),
]

Please find the next compound below.
## Task What value of IC50 on KRAS G12D (Homo sapiens, UniProt P01116, G12D) does C[C@H](Oc1nc(N2CCCC3(CCN3C(=O)c3ccnn3C)C2)c2cc(Cl)c(-c3ccc(F)c4sc(N)c(C#N)c34)c(F)c2n1)[C@@H]1CCCN1C (some centres unmarked) [Compound 282] have?
## Result < 5 µM

###

# system-under-test: KRAS G12D (Homo sapiens, UniProt P01116, G12D)
# Construct: made in house; host or cells: E. coli, e.g. BL21 (DE3)
# assay-info: HTRF assay of K-Ras G12D interaction with SOS1 (PPI-HTRF)
# Format: binding
# condition-description: HTRF, 5 nM KRAS G12D; read-out: PPI-HTRF-5 nM KRAS G12D
quantity-measured: IC50

Known results for molecules:
# molecule, quantity-measured, value-reported
records = [
    ("N#Cc1c(N)sc2c(F)ccc(-c3c(Cl)cc4c(N5CCC6(CCN6C(=O)n6cc(C(F)(F)F)nn6)C5)nc(OC[C@@]56CCCN5C[C@H](F)C6)nc4c3F)c12 (stereo partly drawn)", "IC50", "< 5 µM"),
    ("N#Cc1c(N)sc2c(F)ccc(-c3c(Cl)cc4c(N5CCC6(CCN6C(=O)[C@@H]6N[C@H]6C6CC6)C5)nc(OC[C@@]56CCCN5C[C@H](F)C6)nc4c3F)c12 (stereo partly drawn)", "IC50", "< 5 µM"),
]

Please find the next molecule below.
## Task Which value of IC50 has been reported for `C[C@H]1N(c2nc(OC[C@@]34CCCN3C[C@H](F)C4)nc3c(F)c(-c4ccc(F)c5sc(N)c(C#N)c45)c(Cl)cc23)CC[C@@]12CCN2C(=O)n1cnc(Cl)n1` in the records?
## Result < 5 µM
